- Test system: H2981 human lung adenocarcinoma cell line
- Test details: In vitro cytotoxicity assay, incorporation of [^3H] thymidine into DNA
- Assay type: cell-based
- Measurement setup: H2981 cells, non-conjugate treated, doxorubicin instead of PEG-AC-Dox (Figure 3)
Quantity kind: IC50

Prompt: Item under review: `COc1cccc2c1C(=O)c1c(O)c3c(c(O)c1C2=O)C[C@@](O)(C(=O)CO)C[C@@H]3O[C@H]1C[C@H](N)[C@H](O)[C@H](C)O1` . Reported IC50?
Completion: 100 to 200 nM
